- experimentalSystem: HLA-A*02:01 (Homo sapiens, UniProt P04439, D140Y/D185E/D98H/E176V/E277Q/G131W/G231S/I119V/I121R/I166T/I218V/L300P/L318F/N151K/N90K/P208A/P217A/Q86G/Q94H/R138H/R169H/T345S)
- testSummary: MHC binding assay (UV-ligand exchange, β2m ELISA, peptide exchange yield)
- settings: MHC class I binding score; binding to HLA-A*02:01 ranged by peptide exchange yield (UV-ligand exchange, β2m ELISA)
property: Peptide exchange

Check out these entries, answers already filled in.
231 (FLSPQQPPLLL; listed as Homo sapiens) [compound 231] : “++” (≧20% = ++)
623 (YLVEDIQHI; listed as Homo sapiens) [compound 623] : “+++” (≧50 = +++)
17 (GLLPGDRLVSV; listed as Homo sapiens) [compound 17] : “+++” (≧50 = +++)
544 (LLWDVPAPSL; listed as Homo sapiens) [compound 544] : “+++” (≧50 = +++)
4 (GIMEHITKI; listed as Homo sapiens) [compound 4] : “++++” (≧75% = ++++)

Would you kindly look at the next entry?
I am curious: what Peptide exchange value has been reported for 13 (YLMDESLNL; listed as Homo sapiens) [compound 13] ?
“+++” (≧50 = +++)

* * *

- experimentalSystem: HLA-A*02:01 (Homo sapiens, UniProt P04439, D140Y/D185E/D98H/E176V/E277Q/G131W/G231S/I119V/I121R/I166T/I218V/L300P/L318F/N151K/N90K/P208A/P217A/Q86G/Q94H/R138H/R169H/T345S)
- testSummary: MHC binding assay (UV-ligand exchange, β2m ELISA, peptide exchange yield)
- settings: MHC class I binding score; binding to HLA-A*02:01 ranged by peptide exchange yield (UV-ligand exchange, β2m ELISA)
- Excerpt: Candidate peptides for T cell based therapies according to the present invention were further tested for their MHC binding capacity (affinity). The individual peptide-MHC complexes were produced by UV-ligand exchange, where a UV-sensitive peptide is cleaved upon UV-irradiation, and exchanged with the peptide of interest as analyzed. Only peptide candidates that can effectively bind and stabilize the peptide-receptive MHC molecules prevent dissociation of the MHC complexes. […]
property: Peptide exchange

Check out these entries, answers already filled in.
586 (KLKPGDLVGV; listed as Homo sapiens) [compound 586] : “+++” (≧50 = +++)
386 (ILFRYPLTI; listed as Homo sapiens) [compound 386] : “+++” (≧50 = +++)
598 (FLFPHSVLV; listed as Homo sapiens) [compound 598] : “+++” (≧50 = +++)
460 (AMLEKNYKL; listed as Homo sapiens) [compound 460] : “++++” (≧75% = ++++)
433 (AMLNEPWAV; listed as Homo sapiens) [compound 433] : “+++” (≧50 = +++)

I am curious: what Peptide exchange value has been reported for 446 (QLIPALAKV; listed as Homo sapiens) [compound 446] ?
“+++” (≧50 = +++)

I am curious: what Peptide exchange value has been reported for 321 (GLFEDVTQPGILL; listed as Homo sapiens) [compound 321] ?
“++++” (≧75% = ++++)

I am curious: what Peptide exchange value has been reported for 125 (VQIHQVAQV; listed as Homo sapiens) [compound 125] ?
“+++” (≧50 = +++)

I am curious: what Peptide exchange value has been reported for 75 (GLLEVMVNL; listed as Homo sapiens) [compound 75] ?
“+++” (≧50 = +++)

I am curious: what Peptide exchange value has been reported for 429 (GLVNDLARV; listed as Homo sapiens) [compound 429] ?
“++” (≧20% = ++)

I am curious: what Peptide exchange value has been reported for 508 (ILAQEQLVVGV; listed as Homo sapiens) [compound 508] ?
“+++” (≧50 = +++)

I am curious: what Peptide exchange value has been reported for 49 (YLPAVFEEV; listed as Homo sapiens) [compound 49] ?
“+++” (≧50 = +++)

I am curious: what Peptide exchange value has been reported for 31 (YLAPELFVNV; listed as Homo sapiens) [compound 31] ?
“++” (≧20% = ++)

I am curious: what Peptide exchange value has been reported for 516 (AVGPASILKEV; listed as Homo sapiens) [compound 516] ?
“++” (≧20% = ++)

I am curious: what Peptide exchange value has been reported for 10 (FLATFPLAAV; listed as Homo sapiens) [compound 10] ?
“++++” (≧75% = ++++)

* * *

- experimentalSystem: HLA-A*02:01 (Homo sapiens, UniProt P04439, D140Y/D185E/D98H/E176V/E277Q/G131W/G231S/I119V/I121R/I166T/I218V/L300P/L318F/N151K/N90K/P208A/P217A/Q86G/Q94H/R138H/R169H/T345S)
- testSummary: MHC binding assay (UV-ligand exchange, β2m ELISA, peptide exchange yield)
- settings: MHC class I binding score; binding to HLA-A*02:01 ranged by peptide exchange yield (UV-ligand exchange, β2m ELISA)
property: Peptide exchange

466 (VLIANLEKL; listed as Homo sapiens) [compound 466] : “++++” (≧75% = ++++)
335 (YSLSSVVTV; listed as Homo sapiens) [compound 335] : “+++” (≧50 = +++)
61 (FLQGYQLHL; listed as Homo sapiens) [compound 61] : “++++” (≧75% = ++++)
138 (YQYPRAILSV; listed as Homo sapiens) [compound 138] : “+++” (≧50 = +++)

* * *

- experimentalSystem: HLA-A*02:01 (Homo sapiens, UniProt P04439, D140Y/D185E/D98H/E176V/E277Q/G131W/G231S/I119V/I121R/I166T/I218V/L300P/L318F/N151K/N90K/P208A/P217A/Q86G/Q94H/R138H/R169H/T345S)
- testSummary: MHC binding assay (UV-ligand exchange, β2m ELISA, peptide exchange yield)
- settings: MHC class I binding score; binding to HLA-A*02:01 ranged by peptide exchange yield (UV-ligand exchange, β2m ELISA)
property: Peptide exchange

222 (NLIENVQRL; listed as Homo sapiens) [compound 222] : “++” (≧20% = ++)
85 (KMSELRVTL; listed as Homo sapiens) [compound 85] : “+++” (≧50 = +++)
36 (YVLEDLEVTV; listed as Homo sapiens) [compound 36] : “++” (≧20% = ++)
474 (YLDPALELGPRNV; listed as Homo sapiens) [compound 474] : “+++” (≧50 = +++)
228 (AMQEYIAVV; listed as Homo sapiens) [compound 228] : “++” (≧20% = ++)
162 (YQQAQVPSV; listed as Homo sapiens) [compound 162] : “+++” (≧50 = +++)
274 (SLLFSLFEA; listed as Homo sapiens) [compound 274] : “++” (≧20% = ++)

Would you kindly look at the next entry?
I am curious: what Peptide exchange value has been reported for 214 (FLLDLDPLLL; listed as Homo sapiens) [compound 214] ?
“+++” (≧50 = +++)

* * *

- experimentalSystem: HLA-A*02:01 (Homo sapiens, UniProt P04439, D140Y/D185E/D98H/E176V/E277Q/G131W/G231S/I119V/I121R/I166T/I218V/L300P/L318F/N151K/N90K/P208A/P217A/Q86G/Q94H/R138H/R169H/T345S)
- testSummary: MHC binding assay (UV-ligand exchange, β2m ELISA, peptide exchange yield)
- settings: MHC class I binding score; binding to HLA-A*02:01 ranged by peptide exchange yield (UV-ligand exchange, β2m ELISA)
- Excerpt: Candidate peptides for T cell based therapies according to the present invention were further tested for their MHC binding capacity (affinity). The individual peptide-MHC complexes were produced by UV-ligand exchange, where a UV-sensitive peptide is cleaved upon UV-irradiation, and exchanged with the peptide of interest as analyzed. Only peptide candidates that can effectively bind and stabilize the peptide-receptive MHC molecules prevent dissociation of the MHC complexes. […]
property: Peptide exchange

Check out these entries, answers already filled in.
181 (LLWAGTAFQV; listed as Homo sapiens) [compound 181] : “+++” (≧50 = +++)
332 (YLISELEAA; listed as Homo sapiens) [compound 332] : “+++” (≧50 = +++)
109 (IILSILEQA; listed as Homo sapiens) [compound 109] : “++++” (≧75% = ++++)
289 (VLLEIEDLQV; listed as Homo sapiens) [compound 289] : “++++” (≧75% = ++++)

I am curious: what Peptide exchange value has been reported for 553 (SLLNQDLHWSL; listed as Homo sapiens) [compound 553] ?
“++++” (≧75% = ++++)

I am curious: what Peptide exchange value has been reported for 270 (LLLDEEGTFSL; listed as Homo sapiens) [compound 270] ?
“++” (≧20% = ++)

I am curious: what Peptide exchange value has been reported for 165 (SLLDEIRAV; listed as Homo sapiens) [compound 165] ?
“+++” (≧50 = +++)

I am curious: what Peptide exchange value has been reported for 399 (YLFEPLYHV; listed as Homo sapiens) [compound 399] ?
“+++” (≧50 = +++)

I am curious: what Peptide exchange value has been reported for 635 (SLDSTLHAV; listed as Homo sapiens) [compound 635] ?
“+++” (≧50 = +++)
